// data source = patent US11180486B2

- System: T47D cells
- Assay Method Text: Cell viability (MTT) assay
- Format: cell-based
- Condition Description: Homo sapiens, 48 h, 44 h + 4 h, mean ± SD of three experiments
Endpoint Label: IC50 (µM)
Give the value, in units of µM, as a plain number.

[
  {
    "Molecule": "CCCCCCCC(c1oc(CO)cc(=O)c1O)c1c[nH]c2ccccc12 (centres unmarked) [Compound 5]",
    "IC50 [µM]": 3.45
  },
  {
    "Molecule": "COc1cccc2c1C(=O)c1c(O)c3c(c(O)c1C2=O)C[C@@](O)(C(=O)CO)C[C@@H]3O[C@H]1C[C@H](N)[C@H](O)[C@H](C)O1 [DOXO, doxorubicin, reference compound]",
    "IC50 [µM]": 0.081
  },
  {
    "Molecule": "CCCC(c1oc(CO)cc(=O)c1O)c1c[nH]c2ccccc12 (centres unmarked) [Compound 2]",
    "IC50 [µM]": 43
  },
  {
    "Molecule": "CCCCCCC(c1oc(CO)cc(=O)c1O)c1c[nH]c2ccccc12 (centres unmarked) [Compound 4]",
    "IC50 [µM]": 4.3
  }
]

With those in mind, consider the next molecule.
input: Can you look up the measured IC50 of CCCCCC(c1oc(CO)cc(=O)c1O)c1c[nH]c2ccccc12 (centres unmarked) [Compound 3] for me?
output: 43.5
